# Test system: S. pneumoniae D39V
# METHOD: fitness (endpoint OD595 vs no drug) (fraction); higher = more growth
# CONDITIONS: first compound 1 µg/mL; partner 4 µg/mL
Listing of entries alongside the reported fitness.
MEASURED_ATTRIBUTE: fitness

{"COMPOUND": "COc1cccc2c1C(=O)c1c(O)c3c(c(O)c1C2=O)C[C@@](O)(C(=O)CO)C[C@@H]3O[C@H]1C[C@H](N)[C@H](O)[C@H](C)O1 [Doxorubicin] + Cc1cc(NS(=O)(=O)c2ccc(N)cc2)no1 [Sulfamethoxazol]", "MEASURED_ATTRIBUTE": "fitness", "ENDPOINT_RESULT": 0.92}
{"COMPOUND": "COc1cccc2c1C(=O)c1c(O)c3c(c(O)c1C2=O)C[C@@](O)(C(=O)CO)C[C@@H]3O[C@H]1C[C@H](N)[C@H](O)[C@H](C)O1 [Doxorubicin] + CN[C@@H]1[C@H](O[C@H]2[C@H](O[C@H]3[C@H](O)[C@@H](O)[C@H](N=C(N)N)[C@@H](O)[C@@H]3N=C(N)N)O[C@@H](C)[C@]2(O)C=O)O[C@@H](CO)[C@H](O)[C@H]1O [Streptomycin]", "MEASURED_ATTRIBUTE": "fitness", "ENDPOINT_RESULT": 0.875}
{"COMPOUND": "COc1cccc2c1C(=O)c1c(O)c3c(c(O)c1C2=O)C[C@@](O)(C(=O)CO)C[C@@H]3O[C@H]1C[C@H](N)[C@H](O)[C@H](C)O1 [Doxorubicin] + COc1ccc(C[C@H](N)C(=O)N[C@H]2[C@@H](O)[C@H](n3cnc4c(N(C)C)ncnc43)O[C@@H]2CO)cc1 [Puromycin]", "MEASURED_ATTRIBUTE": "fitness", "ENDPOINT_RESULT": 0.399}
{"COMPOUND": "COc1cccc2c1C(=O)c1c(O)c3c(c(O)c1C2=O)C[C@@](O)(C(=O)CO)C[C@@H]3O[C@H]1C[C@H](N)[C@H](O)[C@H](C)O1 [Doxorubicin] + CN[C@@H]1[C@H](O)[C@H](NC)[C@H]2O[C@@]3(O)C(=O)C[C@@H](C)O[C@H]3O[C@@H]2[C@H]1O [Spectinomycin]", "MEASURED_ATTRIBUTE": "fitness", "ENDPOINT_RESULT": 0.921}

###

# Tested on: S. pneumoniae D39V
# METHOD: Bliss interaction score (quartile over a dose matrix) (fitness difference); higher = more antagonism (negative = synergy)

{"COMPOUND": "CO/N=C(\\C(=O)N[C@@H]1C(=O)N2C(C(=O)O)=C(COC(N)=O)CS[C@H]12)c1ccco1 [Cefuroxime] + Cc1onc(-c2ccccc2)c1C(=O)N[C@@H]1C(=O)N2[C@@H]1SC(C)(C)[C@@H]2C(=O)O [Oxacillin]", "Bliss interaction score": -0.115}
{"COMPOUND": "CN(C)c1cc(NC(=O)CNC(C)(C)C)c(O)c2c1C[C@H]1C[C@H]3[C@H](N(C)C)C(O)=C(C(N)=O)C(=O)[C@@]3(O)C(O)=C1C2=O [Tigecycline] + Oc1cc(Cl)ccc1Oc1ccc(Cl)cc1Cl [Triclosan]", "Bliss interaction score": 0.0471}
{"COMPOUND": "O=C(O)c1cn(C2CC2)c2cc(N3CCNCC3)c(F)cc2c1=O [Ciprofloxacin] + CO[C@@]12[C@H](COC(N)=O)C3=C(C(=O)C(C)=C(N)C3=O)N1C[C@@H]1N[C@@H]12 [MitomycinC]", "Bliss interaction score": -0.111}
{"COMPOUND": "CO/N=C(\\C(=O)N[C@@H]1C(=O)N2C(C(=O)O)=C(COC(N)=O)CS[C@H]12)c1ccco1 [Cefuroxime] + O=C1CN(/N=C/c2ccc([N+](=O)[O-])o2)C(=O)N1 [Nitrofurantoin]", "Bliss interaction score": 0.0749}
{"COMPOUND": "O=C(O)c1cn(C2CC2)c2cc(N3CCNCC3)c(F)cc2c1=O [Ciprofloxacin] + O=C(O)[C@H]1/C(=C/CO)O[C@@H]2CC(=O)N21 [Clavulanic]", "Bliss interaction score": -0.0997}

Each recorded value in this set is attributed to the supplement of paper PMC10627819.
